Hey, just so you know, these numbers are from patent US8530648B2.

# Experimental Target: hOx1R (Homo sapiens (Human), UniProt O43613)
# Sequence (O43613 whole entry): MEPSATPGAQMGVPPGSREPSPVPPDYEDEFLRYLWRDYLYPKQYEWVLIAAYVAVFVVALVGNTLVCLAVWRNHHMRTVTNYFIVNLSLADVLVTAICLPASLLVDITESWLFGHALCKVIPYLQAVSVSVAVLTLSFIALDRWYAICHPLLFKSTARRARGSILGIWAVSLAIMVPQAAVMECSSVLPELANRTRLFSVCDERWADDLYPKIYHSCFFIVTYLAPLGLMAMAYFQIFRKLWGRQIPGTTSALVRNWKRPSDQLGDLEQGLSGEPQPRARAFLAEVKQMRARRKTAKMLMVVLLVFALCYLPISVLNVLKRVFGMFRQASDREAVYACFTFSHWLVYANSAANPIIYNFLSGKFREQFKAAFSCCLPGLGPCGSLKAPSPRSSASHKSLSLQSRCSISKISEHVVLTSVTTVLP
# Procedure Details: Calcium accumulation in cells (FLIPR), hOx1R
# Measurement Context: inhibition of orexin A induced calcium accumulation, Cheng and Prusoff correction
For each record, write down the corresponding pKi.
Here pKi is given on a logarithmic scale as minus log10 of the concentration in mol/L.

Req: Supply measured pKi of O=C1N(Cn2nnc3ccccc32)CCCC12CCN(c1cnc3ccccc3n1)CC2 in your reply.
Resp: 5.77

Req: Supply measured pKi of O=C1N(Cc2cccc(-c3ccncc3)c2)CCCC12CCN(c1cnc3ccccc3n1)CC2 in your reply.
Resp: 6.24

Req: Supply measured pKi of O=C1N(Cc2cc3ccccc3[nH]2)CCCC12CCN(c1cnc3ccccc3n1)CC2 in your reply.
Resp: 5.60

Req: Supply measured pKi of O=C1CCCC2(CCN(c3nc4cc(Cl)ccc4o3)CC2)N1Cc1cccc2[nH]ccc12 in your reply.
Resp: 6.18

Req: Supply measured pKi of Cc1ccc(C)c(CN2C(=O)CCCC23CCN(c2cnc4ccccc4n2)CC3)c1 in your reply.
Resp: 7.11

Req: Supply measured pKi of COc1ccccc1-n1ccnc1CN1CCCC2(CCN(c3cnc4ccccc4n3)CC2)C1=O in your reply.
Resp: 5.45

Req: Supply measured pKi of O=C1N(Cc2cccc(Cl)c2)CCCC12CCN(c1cnc3ccccc3n1)CC2 in your reply.
Resp: 6.13

Req: Supply measured pKi of Cc1nc(-c2ccccc2)oc1CN1CCCC2(CCN(c3cnc4ccccc4n3)CC2)C1=O in your reply.
Resp: 5.72
